# Tested on: FB
# testMethodNotes: Euclidean distance of Cell Painting phenotypic profile (signed KS, 77 features) to DMSO centroid (dimensionless distance); 5 or 10 uM (library dependent); higher = stronger phenotypic change vs DMSO (phenoactivity)
# studyConditions: 48 h
quantityName: Euclidean distance
Please reply with the number alone, leaving off any unit.

# compound, measuredOn, Euclidean distance
data = [
    ("CC1(C)O[C@H]2CC(=O)OC[C@]23[C@H]2CC[C@@]4(C)[C@H](c5ccoc5)OC(=O)[C@H]5O[C@]54[C@]2(C)C(=O)C[C@@H]13", "FB", 0.843),
    ("C=C1CC[C@@H]2[C@](C)(CO)[C@H](O)CC[C@@]2(C)[C@@H]1C/C=C1/C(=O)OC[C@H]1O [Andrographolide]", "FB", 1.96),
    ("C=C[C@@]1(C)CC(=O)[C@]2(O)[C@@]3(C)[C@@H](O)CCC(C)(C)[C@@H]3[C@H](O)[C@H](OC(C)=O)[C@@]2(C)O1", "FB", 1.18),
    ("c1ccc2c(c1)CCCC2C1=NCCN1 (stereo unspecified) [Tetryzoline]", "FB", 1.09),
]

Under FB: report Euclidean distance of O=C1N=C(O)NC1(c1ccccc1)c1ccccc1 [Phenytoin sodium] . 1.08

State recorded Euclidean distance with FB, entry C=C1C(=O)O[C@@H]2/C=C(\C)CC/C=C(\C)CC[C@@H]12 [Costunolide] , no comment. 1.01

====

# Test system: 786-O
# testMethodNotes: Euclidean distance of Cell Painting phenotypic profile (signed KS, 77 features) to DMSO centroid (dimensionless distance); 5 or 10 uM (library dependent); higher = stronger phenotypic change vs DMSO (phenoactivity)
# studyConditions: 48 h
quantityName: Euclidean distance
Just the number, please, no unit attached.

Please review the entries below; each comes with its answer.
# molecule, quantityName, readoutValue
rows = [
    ("CCn1c(-c2nonc2N)nc2c(C#CC(C)(C)O)ncc(OC[C@H]3CCCNC3)c21", "Euclidean distance", 3.05),
    ("Cc1c(Cc2ccc3ccccc3n2)c2cc(F)ccc2n1CC(=O)O", "Euclidean distance", 1.27),
    ("COc1ccc(CNC(=O)Nc2ncc([N+](=O)[O-])s2)cc1", "Euclidean distance", 0.769),
    ("CC(=O)Nc1ccccc1 [Acetanilide]", "Euclidean distance", 0.827),
    ("CC(C)NCC(O)COc1ccc(CC(N)=O)cc1 (stereo not drawn)", "Euclidean distance", 1.33),
    ("O=c1c(O)c(-c2cc(O)c(O)c(O)c2)oc2cc(O)cc(O)c12", "Euclidean distance", 0.872),
    ("Cn1nnc(-c2ccc(-c3ccc(N4C[C@H](COP(=O)(O)O)OC4=O)cc3F)cn2)n1 [Tedizolid Phosphate]", "Euclidean distance", 0.75),
    ("CCCNc1nc(Nc2ccc(C#N)cc2)ncc1C#CCCCNC(=O)[C@H](C)N(C)C(=O)/C=C/CN(C)C", "Euclidean distance", 6.39),
]

Tell me its Euclidean distance given Cl.NCCCC[C@H](N)C(=O)O [L-Lysine hydrochloride] as the entry. 0.954

Identify Euclidean distance associated with the molecule `CC(=O)OCC1=C(C(=O)O)N2C(=O)[C@@H](NC(=O)CSc3ccncc3)[C@H]2SC1` 1.51

State, in one line, measured Euclidean distance of O=C(O)P(=O)(O)O [Foscarnet Sodium] 1.83

State its Euclidean distance for this molecule: `CCn1cc(C(=O)O)c(=O)c2ccc(C)nc21` 1.33

Tell me Euclidean distance reported for `COc1ccc(-c2cc(=O)c3c(OC)c(OC)c(OC)c(OC)c3o2)cc1OC` 0.695
